Where do the numbers come from? From the Deep4Chem optical property database.

assay: photoluminescence quantum yield (fraction); solvent given as SMILES; settings: in CCOCC
Reported photoluminescence quantum yield values for a set of compounds
Format: numeric value only, no unit, no commentary.

Consider the following illustrative entries.
CCC1(CC)c2cc(C=C(C#N)C#N)ccc2-c2ccc(N(C)C)cc21; 0.39
N#Cc1ccc(-c2ccc3c(c2)c2cc(-c4ccc(C#N)cc4)ccc2c2c3nc(-c3ccc(N(c4ccccc4)c4ccccc4)cc3)n2-c2ccccc2)cc1; 0.59

Please indicate photoluminescence quantum yield recorded for CN(C)c1ccc(/C=C2\OC(=O)c3cc(N)ccc32)cc1
0.4

Please indicate photoluminescence quantum yield recorded for N#Cc1ccc(-n2cccc2)cc1
0.023
